# assay_target: Muscarinic acetylcholine receptor M4 (Homo sapiens) (UniProt P08173)
# Sequence (P08173 whole entry, looked up): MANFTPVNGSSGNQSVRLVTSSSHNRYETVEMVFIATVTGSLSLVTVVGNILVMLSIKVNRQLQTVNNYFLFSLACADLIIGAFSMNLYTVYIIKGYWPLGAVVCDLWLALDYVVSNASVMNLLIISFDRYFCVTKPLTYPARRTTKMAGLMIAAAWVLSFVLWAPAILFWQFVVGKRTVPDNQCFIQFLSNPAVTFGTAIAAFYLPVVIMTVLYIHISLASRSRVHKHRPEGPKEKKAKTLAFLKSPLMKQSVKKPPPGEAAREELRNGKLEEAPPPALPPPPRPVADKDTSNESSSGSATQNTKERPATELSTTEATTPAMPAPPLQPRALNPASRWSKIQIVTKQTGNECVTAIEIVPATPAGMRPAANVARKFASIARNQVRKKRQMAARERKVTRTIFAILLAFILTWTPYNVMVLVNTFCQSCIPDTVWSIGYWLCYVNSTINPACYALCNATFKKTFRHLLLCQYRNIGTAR
# method_summary: compounds altering M4/GIRK thallium flux, either direction, primary screen, M4 allosteric agonist project, cell-based, HEK293 M4/GIRK, BTC-AM (AID 625);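 further: thallium influx through GIRK channels coupled to M4 in HEK293 cells with BTC-AM dye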
# experimental_parameters: at 10 µM, actives lie on both sides
quantity: fluorescence slope
Give only the figure.

These solved cases illustrate the format of a correct answer.
C/C(=N\O)C(=O)NCCCn1ccnc1 ... 0.00635
CCN(CC)CCN1C(=O)c2ccccc2NC1c1cc(OC)c(OC)c(OC)c1 (configuration not stated) ... 0.00441
Cc1ccc(S(=O)(=O)/C(C#N)=C/c2c(N3CCN(C)CC3)nc3ccccn3c2=O)cc1 ... 0.0048
O=C(C/C(=N/O)c1ccccc1O)C(F)F ... 0.0043
CCN(CC)C(=O)COn1c(SCC(=O)N(CC)CC)nc2ccccc2c1=O ... 0.00498
CSc1nc2[nH]c3c(c2c2nnnn12)CCCC3 ... 0.00402
Cn1c(CSc2ncn[nH]2)nc2ccccc21 ... 0.00416
O=C1NC(=O)C(c2cn(-c3ccccc3)nc2-c2ccc(F)cc2)N1 (configuration not stated) ... 0.005

QUERY: Which fluorescence slope is reported for this compound? Cc1nn(CC(N)=O)c(=O)c2ccccc12
RESULT: 0.00427

QUERY: Which fluorescence slope is reported for this compound? CCOC(=O)c1[nH]c2ccc(F)cc2c1NC(=O)CCN1CCSCC1
RESULT: 0.00431

* * *

# method_summary: inhibitors of mutant huntingtin aggregation, primary screen, imaging, exon1htt(103Q)mCFP cells, high-content imaging (AID 483);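 further: compound exposure lasted 3 days before fixation; percent of the per-plate median nuclei count of sample wells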
# experimental_parameters: exon1htt(103Q)mCFP cell line, aggregate imaging, at 2 µM; measured here: cell count, toxicity
quantity: nuclei count (%)
A number alone suffices; assume %.

COC(=O)C(O)(CC(=O)c1ccc(OC)cc1)C(F)(F)F (stereo not drawn) ... 100
CC1CCCCC1NC(=O)CN1CCN(Cc2ccccc2Cl)C1=O (stereo not drawn) ... 64.8

QUERY: Which nuclei count is reported for this compound? O=C(O)CCn1[nH]c(=O)ccc1=O
RESULT: 67.3

* * *

# method_summary: inhibitors of TNFa-induced NFkB p65 translocation, primary screen, imaging, HUVEC, MLSMR starter and 10KST1 sets (AID 438);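 further: compound added about 3h40 before a 20 min TNFalpha stimulation; signal is the nuclear over cytoplasmic p65 intensity ratio per well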
# experimental_parameters: HUVEC TNFa-induced p65 nuclear translocation; at 2 µM, stronger effect = higher value, 0% TNFa-plus-vehicle, 100% no-TNFa wells
quantity: inhibition (%)
A number alone suffices; assume %.

These solved cases illustrate the format of a correct answer.
O=C(CSc1nnc(-c2ccncc2)o1)Oc1ccccc1 ... -2.6
CCN(CC)CCN1C(=O)C(=O)/C(=C(/O)c2c(C)[nH]c(C(=O)OC)c2C)C1c1cccc(OC)c1 (stereo not drawn) ... -1

Now let's try a different one.
QUERY: Which inhibition is reported for this compound? CCCOc1ccc(N2C(=O)CC(SCCN)C2=O)cc1 (stereo not drawn)
RESULT: -8.7

* * *

Below, each of the compounds is paired with its reported inhibition value.
# method_summary: inhibitors of TNFa-induced NFkB p65 translocation, primary screen, imaging, HUVEC, MLSMR starter and 10KST1 sets (AID 438);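 further: compound added about 3h40 before a 20 min TNFalpha stimulation; signal is the nuclear over cytoplasmic p65 intensity ratio per well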
# experimental_parameters: HUVEC TNFa-induced p65 nuclear translocation; at 2 µM, stronger effect = higher value, 0% TNFa-plus-vehicle, 100% no-TNFa wells
A number alone suffices; assume %.

These solved cases illustrate the format of a correct answer.
CCCOc1ccc(C2/C(=C(/O)c3ccccc3)C(=O)C(=O)N2CCCN(C)C)cc1OC (configuration not stated) ... -2.9
O=C(COc1ccc2ccccc2c1)N1CCCC1 ... -1.8
CCOC(=O)C(C)(C)Sc1nc2c(cnn2-c2ccc(C)cc2)c(=O)[nH]1 ... -1.6

QUERY: Which inhibition is reported for this compound? CCN1CCN(c2nc3c(c(=O)[nH]c(=O)n3C)n2CCSc2nc3ccccc3s2)CC1
RESULT: -11.8

QUERY: Which inhibition is reported for this compound? CCOC(=O)C(C(=O)OCC)N(C#N)c1nc(SC)nc(N(C)C)n1
RESULT: -2.8

QUERY: Which inhibition is reported for this compound? CCOC(=O)Cc1[nH]nc2c1C(c1cc(OC)ccc1OC)C(C#N)=C(N)O2 (configuration not stated)
RESULT: -5.3

QUERY: Which inhibition is reported for this compound? CC(=O)c1cccc(N=C2NC(=O)C(CO)(CO)S2)c1
RESULT: 1.6
